assay: In vitro stability in liver microsomes, CD-1 mice; format: in vitro ADME; settings: mouse, CD-1 mice liver microsomes, 0.5 mg/mL, read-out: CLint(hep)
readout label: microsomal CLint at 1 μM (µL/min/mg)
Numbers only here, please. The scale is µL/min/mg.

compound C=C(F)C(=O)N1CCN(c2nc(OC[C@@]34CCCN3C[C@H](F)C4)nc3c2CO[C@H](c2c(F)c(N)cc(C)c2C(F)(F)F)C3)C[C@@H]1CC#N , microsomal CLint at 1 μM observed: 285

---

test: Pharmacokinetics by oral administration and intravenous injection in SD rats; format: in vivo; conditions: male, rat, plasma, oral administration, 9.8 mg/kg, read-out: Peak concentration, Cmax
readout label: Cmax

compound C=C(F)C(=O)N1CCN(c2nc(OC[C@@]34CCCN3C[C@H](F)C4)nc3c2CO[C@H](c2c(F)c(N)cc(C)c2C(F)(F)F)C3)C[C@@H]1CC#N , Cmax observed: 220 nM
